As shown below, each of these molecules has a reported AC50 value.
- TARGET_DESC: Cytochrome P450 3A4 (Homo sapiens, UniProt P08684);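 further: confirmatory qHTS run detecting inhibitors and substrates of CYP3A4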
- Sequence (P08684 whole entry): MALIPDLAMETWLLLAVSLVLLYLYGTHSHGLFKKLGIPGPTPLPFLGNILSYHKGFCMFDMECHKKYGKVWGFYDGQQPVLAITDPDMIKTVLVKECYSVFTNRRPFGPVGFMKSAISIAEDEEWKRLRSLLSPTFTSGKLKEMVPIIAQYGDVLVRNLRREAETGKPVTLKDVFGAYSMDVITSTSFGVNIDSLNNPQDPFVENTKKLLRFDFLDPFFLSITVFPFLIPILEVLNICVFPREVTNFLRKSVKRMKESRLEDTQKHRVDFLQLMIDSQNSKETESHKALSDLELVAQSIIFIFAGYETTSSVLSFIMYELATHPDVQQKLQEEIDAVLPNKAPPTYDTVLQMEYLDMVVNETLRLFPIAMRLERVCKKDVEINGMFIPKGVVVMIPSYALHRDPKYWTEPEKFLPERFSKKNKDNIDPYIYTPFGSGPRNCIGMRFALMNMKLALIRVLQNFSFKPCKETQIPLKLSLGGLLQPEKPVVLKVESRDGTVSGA
- RECORDED_CONDITIONS: Potency

Solved cases (4 shown):
COC(=O)[C@@H]1C[C@@H]2CC[C@@H](O)C[C@@H]2N1Cc1ccc(C)s1; 25.1 µM (inconclusive)
COC(=O)c1c(C)c2c(c(C)c1O)OC(=O)c1c(C)c(Cl)c(O)c(Cl)c1O2; 2.51 µM (inconclusive)
CCCCC(CC)COP(=O)(OCC(CC)CCCC)OCC(CC)CCCC (stereo unspecified); 15.8 µM (inconclusive)
COC1=CC(=O)C=C(OC)C1=O; 25.1 µM (inconclusive)

Task: # get_value(readout='AC50', item= COC(=O)c1cccc(C23CC4(C2)[C@H](CN(Cc2ccc(-c5ccccc5)cc2)[C@@H]4c2ccccc2)C3c2ccc(C(F)(F)F)cc2)c1 (stereo partly specified) )
Result: 20 µM (inconclusive)

Task: # get_value(readout='AC50', item= C=CCOC(=O)C(C(C)=O)C(NC(=O)OC)c1ccco1 (stereo unspecified) )
Result: 5.01 µM (inconclusive)

Data origin, for the record: ChEMBL document CHEMBL1201862
